system: SK-OV-3 ovarian; assay: NCI-60 one-dose screen, 48 h (100 = growth as untreated, 0 = no growth, -100 = all killed); details: 10 µM unless noted
This is part of a sample that, as a whole, favours compounds with a hit. Of some 83,000 tested, about 20% had one in any assay.
Entries and their growth
Form entry: value (%) — number only.

Consider the reported growth for these compounds:
Cc1[nH]c(C(=O)Nc2ccccc2OC2CCNC2)c(Cl)c1Cl (stereo not given)	99.3
O=C1/C(=C/c2ccc(Br)cc2)COc2ccc(O)cc21	120
CN1CCN(Cc2ccc(NC(=O)c3cncc(C#Cc4c(N)ncc5cc(F)ccc45)c3)cc2C(F)(F)F)CC1	82.6
C=C1/C(=C\C=C2/CCC[C@]3(C)[C@@H]([C@H](C)CCCC(C)(C)O)CC[C@@H]23)C[C@@H](OC(=O)CBr)C[C@@H]1O	108
COc1ccc(Nc2nccc(Nc3ccc4[nH]ncc4c3)n2)cc1	52.1
Cc1ccc(-c2nc(C#N)c(S(=O)(=O)n3nc(C)cc3N)o2)cc1	108

Q) Find the recorded growth belonging to "CCOC(=O)c1ccc2c(c1)c1c(C)c3cnccc3c(C)c1n2C" and report it.
A) -21.4

Q) Continue with "COc1cccc2cc(N(C)c3nc(C)nc4c3CCC4)ccc12"
A) 19.5

Q) Continue with "COc1cccc(-c2nn(-c3ccccc3)cc2-c2ccnc(-c3cccnc3)c2)c1"
A) 104

Q) Continue with "COc1ccc(C(=O)/C=C/Nc2cc(-c3ccccc3)nn2-c2ccccc2)cc1"
A) 97.6

* * *

test system: SK-MEL-28 melanoma; assay: NCI-60 one-dose screen, 48 h (100 = growth as untreated, 0 = no growth, -100 = all killed); conditions: 10 µM unless noted
About 83,000 compounds went through this panel and 20% of them were active in at least one assay; those are over-represented in the sample as a whole.
measurementName: growth (%)
Form entry: value (%) — number only.

Consider the reported growth for these molecules:
NCCCCCNc1noc(Cc2c[nH]c3cc(Br)ccc23)n1	40.2
CN(C)C(=S)NN=C(c1ccccn1)c1ccccn1	30.7
CN1C(=O)N(C)C2C1NN=c1s/c(=C\c3ccccc3F)c(=O)n12 (stereo not given)	47.1
O=CN1N=C(c2cccc(Nc3ccncc3)c2)CC1c1ccc2c(c1)OCO2 (stereo not given)	97.7
COc1ccc(N/N=C/c2ccc3c(c2)Sc2ccccc2N3C)cc1	100

Q) Find the recorded growth belonging to "N=C(N)c1ccc(-c2ccc(-c3ccccc3)s2)nc1" and report it.
A) 109

Q) Continue with CCn1c2ccccc2c2cc(C(O)c3cccc4ncccc34)ccc21 (stereo not given)
A) 61.5

Q) Continue with C#CC(F)(F)[C@]1(O)CCC2C3CCC4=CC(=O)CCC4=C3[C@@H](c3ccc(N(C)C)cc3)C[C@@]21C (stereo not given in full)
A) 109

Q) Continue with "CCOc1cc(\C=N/N=C(N)/C(N)=N\N=C/c2ccc(O)c(OCC)c2)ccc1O"
A) 103

Q) Continue with COc1cccc(C2C3=C(COC3=O)N(CCO)c3cc4c(cc32)OCCO4)c1 (stereo not given)
A) 38.7

* * *

tested on: IGROV1 ovarian; assay: NCI-60 one-dose screen, 48 h (100 = growth as untreated, 0 = no growth, -100 = all killed); details: 10 µM unless noted
This is part of a sample that, as a whole, favours compounds with a hit. Of some 83,000 tested, about 20% had one in any assay.
Decision: growth compared against 50%; not below it gives satisfied, below it gives not satisfied.

// below: answered compounds
COc1nc2ccccc2cc1/C=C1/C=C(c2ccccc2)NC1=O	not satisfied
[2H]C([2H])([2H])Oc1ccc(/C=C/C(=O)/C=C(/C=C/c2ccc(OC([2H])([2H])[2H])c(OC([2H])([2H])[2H])c2OC([2H])([2H])[2H])OB(F)F)c(OC([2H])([2H])[2H])c1OC([2H])([2H])[2H]	satisfied
C=CCNc1ccc2c3c(cccc13)C(=O)N(CC=C)C2=O	satisfied

Q) Form field: growth at least 50%? Entry: "CCCN1C2CCC1/C(=C\c1ccc(OC)cc1)C(=O)/C2=C/c1ccc(OC)cc1"
A) satisfied

Q) Continue with Clc1nc(N2CCC[N+]3(CC2)CC[N+]2(CCCNCC2)CC3)nc(N2CCC[N+]3(CC2)CC[N+]2(CCCNCC2)CC3)n1 (stereo not drawn)
A) satisfied

Q) Continue with Nc1nc(N)c2c(n1)NC(c1cccc(Nc3ccnc4cc(C(F)(F)F)ccc34)c1)CC(c1ccc(Cl)cc1)=N2 (stereo not drawn)
A) satisfied

Q) Continue with N#C/C(=C/C=C/c1ccccc1)S(=O)c1ccccc1 (stereo not drawn)
A) not satisfied

* * *

Entries and their growth
tested on: 786-0 renal; assay: NCI-60 one-dose screen, 48 h (100 = growth as untreated, 0 = no growth, -100 = all killed); details: 10 µM unless noted
Compounds without any hit were thinned out: in the full panel of roughly 83,000, 20% have a hit.
Form entry: value (%) — number only.

Consider the reported growth for these compounds:
O=C(Nc1ncc(Cc2ccccc2)s1)c1ccc2c(c1)OCCO2	33.1
COc1ccc(C(c2cc(OC)c(OC)c(OC)c2)n2cncn2)cc1O (centres undefined)	28.1
O=C(O)/C=C/c1cn(-c2ccccc2)nc1-c1ccc(F)cc1	96.1
COc1cc(C(=O)c2c(-c3ccccc3)oc3ccccc23)cc(OC)c1O	35.6
C#Cc1cccc(Nc2ncnc3ccc(-c4cnc(Cl)c(NS(C)(=O)=O)c4)cc23)c1	-14.6
Cc1ccc2c(n1)C[C@H](C(C)(C)O)CC[C@H]2C	97.9
CC(=O)O[C@H]1C[C@@]2(C)[C@@H](C[C@@H](O)[C@H]3[C@@]4(C)CC[C@H](N5CCCC5)[C@@H](C)[C@@H]4CC[C@@]32C)/C1=C(\CCC=C(C)C)C(=O)O	105
O=C(/C=C/c1cccc([N+](=O)[O-])c1)c1ccc(Nc2nc(Nc3ccc(F)cc3)nc(Nc3ccc(Cl)cc3)n2)cc1	99.4

Next compound, please.
Q) Find the recorded growth belonging to "NS(=O)(=O)Oc1cccc(-c2nc3sccn3c2-c2ccccc2)c1" and report it.
A) 65.5

* * *

Entries and their growth
tested on: NCI-H322M lung; experiment: NCI-60 one-dose screen, 48 h (100 = growth as untreated, 0 = no growth, -100 = all killed); conditions: 10 µM unless noted
The panel holds about 83,000 compounds, 20% with a hit somewhere; the sample as a whole holds those more often.
Form entry: value (%) — number only.

Consider the reported growth for these compounds:
C[C@@H]1N=C(c2ccc(Cl)cc2Cl)Nc2nc3ccccn3c2C1=O	63.7
CN1CCN(Cn2nc(-c3cc(Cl)cc(Cl)c3Cl)oc2=S)CC1	101
CCCCC/C=C/CCC(=O)N[C@H]1[C@H](Oc2c3cc4cc2Oc2ccc(cc2Cl)[C@@H](O[C@@H]2O[C@H](CO)[C@@H](O)[C@H](O)[C@H]2NC(C)=O)[C@@H]2NC(=O)[C@H](NC(=O)[C@@H]4NC(=O)[C@H]4NC(=O)[C@@H](Cc5ccc(c(Cl)c5)O3)NC(=O)[C@@H](N)c3ccc(O)c(c3)Oc3cc(O)cc4c3)c3ccc(O)c(c3)-c3c(O[C@H]4O[C@H](CO)[C@@H](O)[C@H](O)[C@@H]4O)cc(O)cc3[C@H](C(=O)O)NC2=O)O[C@H](CO)[C@H](O)[C@@H]1O	108
Cc1ccc2nc(/C=C/c3ccc(N(C)C)cc3)cc(C)c2c1	70.9
COC(=O)c1nc(-c2ccc(C)cc2)oc1N1CCOCC1	105

Q) Entry "CC(=O)O[C@H]1C[C@@]2(C)[C@@H](C[C@@H](O)[C@H]3[C@@]4(C)CC[C@H](N5CCCC5)[C@@H](C)[C@@H]4CC[C@@]32C)/C1=C(\CCC=C(C)C)C(=O)O" , system NCI-H322M lung: what growth was measured?
A) 101

Q) Continue with "CN1CCN(Cc2ccc(NC(=O)c3cc(C#Cc4cnc(N)c5ncccc45)n(C)n3)cc2C(F)(F)F)CC1"
A) 127

* * *

Test system: MOLT-4 leukemia
Assay: NCI-60 one-dose screen, 48 h
Conditions: 10 µM unless noted
Method: Growth inhibition of the MOLT-4 human tumor cell line is measured as a screen for anti-cancer activity. Cells are grown in 96 well plates and exposed to the test compound for 48 hours. Compounds are tested at a single concentration, which is 10^-5 M for most compounds. The reported endpoint is percent growth (GI% or GIPRCNT), where numbers from 0 - 100% represent growth inhibition, and numbers from -100% - 0 represent cell death. For example, a value of 40 represents 60% growth inhibition. […]
The panel holds about 83,000 compounds, 20% with a hit somewhere; the sample as a whole holds those more often. Activity calls are given as the source filed them. How the source made its calls: active means growth percent below 10; inactive means the rest.
Returns: one label drawn from active, inactive

// below: answered compounds
CN1CCN(Cc2ccc(NC(=O)c3cncc(C#Cc4c(N)ncc5c(F)cccc45)c3)cc2C(F)(F)F)CC1	active
O=C(O)c1nn(-c2ccc(Cl)cc2)nc1N1CCCC1	inactive
CC(=O)CC(=O)c1ccccc1.[Cu+2]	inactive

Q) Look up the recorded call for "CCN1CCN(c2cc(C(=O)Nc3cccc(Nc4ccc5c(OC)cccc5n4)c3)cc(C(F)(F)F)c2)CC1" in this test.
A) active

Q) Continue with "O=C(NC1CCCCCC1)c1ccc2c(=O)n3c(nc2c1)CCCCC3"
A) inactive

Q) Continue with COC(=O)c1nc(-c2ccccc2)oc1S(=O)(=O)NCC(c1ccc(Cl)cc1)N1CCCCC1 (stereo unspecified)
A) active

Q) Continue with O=C(Nc1ccc2c(c1)-c1ccccc1C2)C1CC(=O)N(c2ccc3c(c2)OCO3)C1 (stereo unspecified)
A) inactive

Q) Continue with "CC/C(=C(/c1ccc(Cl)cc1)c1ccc(OCCN2CCCC2)cc1)c1ccccc1"
A) inactive

Q) Continue with COc1ccc(C(=O)C2OC3=C(C(=O)CC(C)(C)C3)C2c2cccc(Oc3ccccc3)c2)cc1 (stereo unspecified)
A) inactive

Q) Continue with "COc1ccc(Nc2nc(Nc3cc(C)[nH]n3)c3cc(OC)c(OC)cc3n2)cc1"
A) active

Q) Continue with "CCN(CC)CCCNc1cc(OC)cc2cccnc12"
A) inactive

Q) Continue with "O=S(=O)(Nc1ccc(Br)cc1)c1ccc(-c2cnc(C3CC3)o2)cc1"
A) inactive

Q) Continue with "COc1ccc(-n2c(=O)n(-c3ccc(-c4nc5ccc(F)cc5s4)cc3)c(=O)c3cccnc32)cc1"
A) inactive

Q) Continue with "Brc1ccc(-c2nn(-c3ccccc3)cc2-c2nn[nH]n2)s1"
A) inactive

Q) Continue with "Cc1csc(Nc2nc(-c3cccc(Cl)c3)nc(C(Cl)(Cl)Cl)n2)n1"
A) inactive

Q) Continue with "CCN(CC)CCOc1ccc(/C(=C(\C)Cc2ccc(OC)cc2)c2ccc(O)cc2)cc1"
A) active

Q) Continue with "COc1ccc(/C(C)=C(\c2ccc(Cl)cc2)c2ccc(OCCCN(C)C)cc2)cc1"
A) inactive

Q) Continue with "CSc1nn2c(-c3cc4cc(Br)ccc4oc3=O)ccnc2c1C#N"
A) inactive

Q) Continue with "CCCCCCCC/C=C\CCCCCCCCOc1ccc(CC(=O)NCC[N+]2(C)CCCC2)cc1"
A) inactive

Q) Continue with "C=CC(=O)NCc1cccc(Nc2ncc(Br)c(NCCCNC(=O)C3CCC3)n2)c1"
A) active

Q) Continue with Nc1ncnc2c1N=C(c1ccc([N+](=O)[O-])cc1)CC(c1ccc3c(c1)OCO3)N2 (stereo unspecified)
A) inactive

Hey, just so you know, these numbers are from PubChem BioAssay (NCI).
